- protocol-summary: Pharmacokinetic study of oral vs intra-cecal administration of tacrolimus (Example 13)
- Design: species or system Yorkshire-Cross farm swine
- test-context: female, Yorkshire-Cross, swine, in vivo, 0.09 mg/kg
recorded-endpoint: Kp at 12 h
Answer using only a numeral; do not append any unit.

Need Kp at 12 h of C=CC[C@@H]1/C=C(\C)C[C@H](C)C[C@H](OC)[C@H]2O[C@@](O)(C(=O)C(=O)N3CCCC[C@H]3C(=O)O[C@H](/C(C)=C/[C@@H]3CC[C@@H](O)[C@H](OC)C3)[C@H](C)[C@@H](O)CC1=O)[C@H](C)C[C@@H]2OC [tacrolimus] , thanks.
0
